Type: in vivo, human
Details: human, plasma, oral, AUCinf, Adjusted Geometric Mean, Test, Test: esomeprazole 40 mg per day for 5 days and single 250-mg crizotinib dose after overnight fasting on day 5
Reported Metric: AUC(0-inf) (ng·h/mL)

[[record]]
chemical_smiles = "C[C@@H](Oc1cc(-c2cnn(C3CCNCC3)c2)cnc1N)c1c(Cl)ccc(F)c1Cl"
reported_metric = "AUC(0-inf)"
recorded_measurement = 2120


* * *

Format: in vivo, human
Details: human, plasma, po, 250 mg, Cmax, Geometric Mean (%CV), healthy participants, plasma, single oral crizotinib 250 mg on day 5 of esomeprazole 40 mg/day (n = 15)
Reported Metric: Cmax (ng/mL)

[[record]]
chemical_smiles = "C[C@@H](Oc1cc(-c2cnn(C3CCNCC3)c2)cnc1N)c1c(Cl)ccc(F)c1Cl"
recorded_measurement = 115

